Tested on: Setaria faberi (SETFA)
Assay: Pre-emergence biological efficacy, glasshouse pot test
Assay type: in vivo
Conditions: 312 h, pre-emergence, rate 1,000 g/ha, evaluated after 13 days (100=total damage to plant; 0=no damage), read-out: Percentage damage caused to weed species, SETFA
Experimental: Seeds of Alopecurus myosuroides (ALOMY), Setaria faberi (SETFA), Echinochloa crus-galli (ECHCG), Solanum nigrum (SOLNI), Amaranthus retoflexus (AMARE) and Ipomea hederaceae (IPOHE) were sown in standard soil in pots. […] The test plants were then grown under controlled conditions in the glasshouse (at 24/16° C., day/night; 14 hours light; 65% humidity) and watered twice daily. After 13 days the test was evaluated (100=total damage to plant; 0=no damage to plant).

compound: COC(=O)c1nc(-c2ccc(Cl)c(OC)c2F)nc(NCc2ccco2)c1Cl
pest or weed control at 1000 g/ha: 90%
//
compound: CCN(Cc1c(F)cccc1Cl)c1nc(C2CC2)nc(C(=O)OC)c1Cl
pest or weed control at 1000 g/ha: 0%
//
compound: COC(=O)c1nc(-c2ccc(Cl)c(C(F)(F)F)c2)nc(NCc2ccco2)c1Cl
pest or weed control at 1000 g/ha: 20%
//
compound: CCCN(Cc1ccccc1F)c1nc(C2CC2)nc(C(=O)OC)c1Cl
pest or weed control at 1000 g/ha: 0%
//
compound: COC(=O)c1nc(-c2ccc(Cl)c([N+](=O)[O-])c2)nc(NCc2ccco2)c1Cl
pest or weed control at 1000 g/ha: 0%
//
compound: O=C(NCc1ccccc1)c1nc(C2CC2)nc(NCc2ccccc2)c1Cl
pest or weed control at 1000 g/ha: 0%
//
compound: COC(=O)c1nc(Cl)nc(NCC2CC2)c1Cl
pest or weed control at 1000 g/ha: 0%
//
compound: CCN(Cc1ccc(C)o1)c1nc(C2CC2)nc(C(=O)OC)c1Cl
pest or weed control at 1000 g/ha: 40%
//
compound: COC(=O)c1nc(C2CC2)nc(N(C)Cc2cccnc2)c1Cl
pest or weed control at 1000 g/ha: 0%
//
compound: COC(=O)c1nc(-c2ccc(F)c(OC)c2)nc(NCc2ccco2)c1Cl
pest or weed control at 1000 g/ha: 40%
//
compound: O=C(NCc1ccco1)c1nc(C2CC2)nc(NCc2ccco2)c1Cl
pest or weed control at 1000 g/ha: 40%
//
compound: COC(=O)c1nc(C2CC2)nc(N(C)Cc2cccc(C(F)(F)F)c2)c1Cl
pest or weed control at 1000 g/ha: 30%
//
compound: COC(=O)c1nc(C2CC2)nc(N(C)Cc2cc(OC)cc(OC)c2)c1Cl
pest or weed control at 1000 g/ha: 0%
//
compound: COC(=O)c1nc(-c2ccc(OC)cc2C)nc(NCc2ccco2)c1Cl
pest or weed control at 1000 g/ha: 0%
//
compound: COC(=O)c1nc(-c2ccc(Cl)cc2C(F)(F)F)nc(NCc2ccco2)c1Cl
pest or weed control at 1000 g/ha: 0%
//
compound: CCOc1ccc(CN(C)c2nc(C3CC3)nc(C(=O)OC)c2Cl)cc1OCC
pest or weed control at 1000 g/ha: 20%
//
compound: NC(=O)c1nc(C2CC2)nc(NCc2ccco2)c1Cl
pest or weed control at 1000 g/ha: 0%
//
compound: COC(=O)c1nc(-c2ccc(Cl)c(C#N)c2)nc(NCc2ccco2)c1Cl
pest or weed control at 1000 g/ha: 0%
//
compound: COC(=O)c1nc(C2CC2)nc(N(C)Cc2ccccc2F)c1Cl
pest or weed control at 1000 g/ha: 10%
//
compound: C=Cc1c(NCc2ccco2)nc(-c2ccc(Cl)c(OC)c2F)nc1C(=O)OC
pest or weed control at 1000 g/ha: 80%
//
compound: COC(=O)c1nc(-c2ccc(Cl)s2)nc(NCc2ccco2)c1Cl
pest or weed control at 1000 g/ha: 0%
//
compound: COC(=O)c1nc(C2CC2)nc(N(C)Cc2ccc(N)cc2)c1Cl
pest or weed control at 1000 g/ha: 30%
//
compound: COC(=O)c1nc(Cl)nc(NCc2ccc(C)o2)c1Cl
pest or weed control at 1000 g/ha: 0%
//
compound: CCN(Cc1ccc(F)cc1)c1nc(C2CC2)nc(C(=O)OC)c1Cl
pest or weed control at 1000 g/ha: 10%
//
compound: COC(=O)c1nc(C2CC2)nc(N(C)Cc2nonc2C)c1Cl
pest or weed control at 1000 g/ha: 10%
//
compound: COC(=O)c1nc(C2CC2)nc(N(C)CCc2ccccn2)c1Cl
pest or weed control at 1000 g/ha: 0%
//
compound: COC(=O)c1nc(-c2ccc(Cl)cc2OC)nc(NCc2ccco2)c1Cl
pest or weed control at 1000 g/ha: 10%
//
compound: COC(=O)c1nc(C2CC2)nc(N[C@@H](Cc2ccccc2)C(=O)OC(C)(C)C)c1Cl [4-293 (S)]
pest or weed control at 1000 g/ha: 0%
//
compound: COC(=O)c1nc(-c2ccc(OC)c(F)c2)nc(NCc2ccco2)c1Cl
pest or weed control at 1000 g/ha: 0%
//
compound: COC(=O)c1nc(-c2ccc(OC)c(Cl)c2)nc(NCc2ccco2)c1Cl
pest or weed control at 1000 g/ha: 0%
//
compound: COC(=O)c1nc(C2CC2)nc(N(C)Cc2ccc(F)cc2)c1Cl
pest or weed control at 1000 g/ha: 60%
//
compound: C=Cc1ccc(-c2c(NCc3ccco3)nc(C3CC3)nc2C(=O)OC)cc1
pest or weed control at 1000 g/ha: 0%
//
compound: C=CCN(Cc1cccs1)c1nc(C2CC2)nc(C(=O)OC)c1Cl
pest or weed control at 1000 g/ha: 10%
//
compound: CC(C)COC(=O)c1nc(C2CC2)nc(NCc2ccco2)c1Cl
pest or weed control at 1000 g/ha: 80%
//
compound: COC(=O)c1nc(-c2ccc(Cl)c(F)c2)nc(NCc2ccco2)c1Cl
pest or weed control at 1000 g/ha: 20%
